Test system: HepG2-CANX-COX4
Experiment: phenotypically active (imaging signature differs from DMSO and reproducible) at any of 0.3-9 uM (binary (1 = active, 0 = inactive)); higher = active
Conditions: treatment time: 24 h
Entry note: the call must match one of active, inactive

Recorded test outcome, item `CCN(CC)CCNc1ccc(CO)c2sc3ccccc3c(=O)c12` inactive

For CC1Cc2ccccc2N1NC(=O)c1ccc(Cl)c(S(N)(=O)=O)c1 (stereo not given) [indapamide] , which call appears in the assay record? inactive

For `c1ccc(CC2=NCCN2)cc1` , what call appears in the results of this test? inactive

Could you please tell me the result logged for `Cc1cc2c(s1)Nc1ccccc1N=C2N1CCN(C)CC1` in this assay? inactive

What was the test verdict on `O=P(O)(O)C(O)(Cn1ccnc1)P(=O)(O)O` ? inactive

# lookup: test call for O=C(O)CCCc1ccccc1 [Sodium 4-Phenylbutyrate] inactive

Test call for this molecule, please: `O=C(NCCN1CCC(n2c(=O)[nH]c3ccccc32)CC1)c1cc2cc(F)ccc2[nH]1` active

Could you check what this test reported for `O=C(O)c1cc(/N=N/c2ccc(S(=O)(=O)Nc3ccccn3)cc2)ccc1O` ? inactive

Returns: the outcome recorded for `OCc1ccccc1O[C@@H]1O[C@H](CO)[C@@H](O)[C@H](O)[C@H]1O` in this assay. inactive

Tell me the recorded outcome of this test for CCCNCC(O)COc1ccccc1C(=O)CCc1ccccc1 (stereo not given) . inactive

---

Tested on: HepG2-GM130-SQSTM1
Experiment: phenotypically active (imaging signature differs from DMSO and reproducible) at any of 0.3-9 uM (binary (1 = active, 0 = inactive)); higher = active
Details: treatment time: 24 h
The categories you may choose from are 1 (yes) for active, 0 (no) for inactive

Write down the call the test reported for this molecule. Item: `Cc1ccc(NC(=O)c2ccc(CN3CCN(C)CC3)cc2)cc1Nc1nc(-c2cccnc2)cs1` 1 (yes)

State the result this test recorded for `CCN1CCN(c2cc(-c3ccc(F)cc3)c3c(n2)CCCCCC3)CC1` . 1 (yes)

Query: recorded result category for `Cc1ccc2nc(NCCN)c3ncc(C)n3c2c1` in this test 1 (yes)

Please indicate how the test categorized C=C1CC[C@@H]2[C@](C)(CO)[C@H](O)CC[C@@]2(C)[C@@H]1C/C=C1/C(=O)OC[C@H]1O [Andrographolide] . 1 (yes)

In this assay, the call recorded for `O=P(O)(O)C(O)(Cn1ccnc1)P(=O)(O)O` was what? 0 (no)

---

Test system: A549-ACTB-RAB5A
Assay: phenotypically active (imaging signature differs from DMSO and reproducible) at any of 0.3-9 uM (binary (1 = active, 0 = inactive)); higher = active
Conditions: treatment time: 24 h
Use one of these outcomes when replying: active, inactive

# fetch the recorded call for `CCOC(=O)[C@H](CCc1ccccc1)N[C@@H](C)C(=O)N1Cc2ccccc2C[C@H]1C(=O)O` here inactive

Look up the recorded call for `COC(=O)c1ccc(N2CCN(C)CC2)c(NC(=O)c2cccc(OC)c2)c1` in this test. inactive

Entry `CC[N+](C)(CC)CCOC(=O)C1c2ccccc2Oc2ccccc21` : call = ? inactive

What call does the record list for `S=P(N1CC1)(N1CC1)N1CC1` ? inactive

Query: recorded result category for `CC1=CC(=O)C2=C(C)CC[C@@H]3[C@H](OC(=O)[C@H]3C)[C@@H]12` in this test inactive

# fetch the recorded call for NS(=O)(=O)c1cc2c(cc1Cl)N=CNS2(=O)=O [chlorothiazide] here inactive

What outcome does the record of this test show for CC(C)NCC(O)c1ccc(NS(C)(=O)=O)cc1 (centres undefined) ? inactive

What did the test return for `CC(C)(C)Nc1nc(Nc2ccc(C(N)=O)cc2)cc(N)c1C#N` ? active

I'd appreciate the recorded outcome for `O=C(Nc1c(Cl)cncc1Cl)c1ccc(OC(F)F)c(OCC2CC2)c1` from this test. inactive
